Task for the reader: assign each of the following molecules its reported melting point.

What value of melting point has been reported for the following molecule? `COc1ccc(NC(=O)COc2ccc([N+](=O)[O-])c(F)c2)c(OC)c1` 174 to 175 °C

Find the recorded melting point belonging to `O=C(COc1ccc([N+](=O)[O-])c(F)c1)Nc1ccc(Br)cc1Cl` and report it. 173 to 175 °C

Any idea what melting point was measured for `O=C(COc1ccc([N+](=O)[O-])c(F)c1)Nc1ccc(Cl)c(C(F)(F)F)c1` ? 163 to 164 °C
